TESTED SYSTEM: Polyunsaturated fatty acid 5-lipoxygenase (Homo sapiens)
Sequence (P09917 whole entry): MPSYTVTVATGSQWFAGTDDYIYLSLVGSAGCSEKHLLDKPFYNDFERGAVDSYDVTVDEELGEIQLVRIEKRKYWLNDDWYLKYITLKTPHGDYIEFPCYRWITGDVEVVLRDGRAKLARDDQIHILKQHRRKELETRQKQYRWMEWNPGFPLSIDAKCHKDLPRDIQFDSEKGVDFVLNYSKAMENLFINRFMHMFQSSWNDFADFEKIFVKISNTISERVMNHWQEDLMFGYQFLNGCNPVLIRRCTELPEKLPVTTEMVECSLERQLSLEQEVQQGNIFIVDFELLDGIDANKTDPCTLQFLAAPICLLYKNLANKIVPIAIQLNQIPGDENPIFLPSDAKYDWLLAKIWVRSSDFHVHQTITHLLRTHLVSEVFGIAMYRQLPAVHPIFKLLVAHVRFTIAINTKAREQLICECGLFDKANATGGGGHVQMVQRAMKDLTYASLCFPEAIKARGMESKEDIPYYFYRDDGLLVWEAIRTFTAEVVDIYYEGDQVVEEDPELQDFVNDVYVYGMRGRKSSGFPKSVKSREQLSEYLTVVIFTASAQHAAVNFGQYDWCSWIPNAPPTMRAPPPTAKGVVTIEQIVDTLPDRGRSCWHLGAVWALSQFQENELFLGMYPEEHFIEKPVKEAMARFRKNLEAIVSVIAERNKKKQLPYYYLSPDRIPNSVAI
PROCEDURE SUMMARY: Inhibition of recombinant 5-lipoxygenase expressed in Escherichia coli BL21 using arachidonic acid as substrate incubated for 15 mins prior to substrate addition measured after 10 mins by HPLC analysis
pIC50: −log10 of the molar value.
Each entry gets Condition not met if its pIC50 stays under 5, and Condition met if its pIC50 is 5 or above.

In [3]: df
Out[3]:
                           test_smiles                cat
0   CC(C)CC(=O)Nc1nc2c(s1)CCc1ccccc1-2  Condition not met
1  CN(C)c1ccc(-n2nc3ccc4ccccc4c3n2)cc1      Condition met
2   COc1ccc(-c2nc3cc(C)ccc3[nH]2)cc1OC  Condition not met
3      COc1ccc(-c2nc3cc(C)ccc3o2)cc1OC      Condition met
